# Tested on: DAPK1 (human)
# Assay details: KINOMEscan competition binding
# Study conditions: compound 1.0 µM
Assay endpoint: kinase still bound, per cent of control (%)

Smi: Cc1cc(NC(=O)c2cccc(NC(=O)/C=C/CN(C)C)c2)ccc1Nc1nccc(-c2cccnc2)n1
Tested on: DAPK1 (human)
U: %
Readout number: 100
//
Smi: CN(C)C/C=C/C(=O)Nc1cccc(C(=O)Nc2ccc(Nc3nccc(/C(C#N)=C4\Nc5ccccc5S4)n3)cc2)c1
Tested on: DAPK1 (human)
U: %
Readout number: 100
//
Smi: CN(C)C/C=C/C(=O)Nc1cccc(C(=O)Nc2ccc(Nc3nccc(-c4cccnc4)n3)cc2)c1
Tested on: DAPK1 (human)
U: %
Readout number: 63
//
Smi: CN(C)C/C=C/C(=O)Nc1cccc(C(=O)Nc2ccc(Nc3nccc(-c4c(-c5ccccc5)nn5ccccc45)n3)cc2)c1
Tested on: DAPK1 (human)
U: %
Readout number: 94

* * *

# Tested on: JAK2 JH1 catalytic (human)
# Assay details: KINOMEscan competition binding
# Study conditions: compound 1.0 µM

Smi: CN(C)C/C=C/C(=O)Nc1cccc(C(=O)Nc2ccc(Nc3nccc(-c4cccnc4)n3)cc2)c1
U: %
kinase still bound, per cent of control: 50
//
Smi: CN(C)C/C=C/C(=O)Nc1cccc(C(=O)Nc2ccc(Nc3nccc(-c4c(-c5ccccc5)nn5ccccc45)n3)cc2)c1
U: %
kinase still bound, per cent of control: 100
//
Smi: Cc1cc(NC(=O)c2cccc(NC(=O)/C=C/CN(C)C)c2)ccc1Nc1nccc(-c2cccnc2)n1
U: %
kinase still bound, per cent of control: 100
//
Smi: CN(C)C/C=C/C(=O)Nc1cccc(C(=O)Nc2ccc(Nc3nccc(/C(C#N)=C4\Nc5ccccc5S4)n3)cc2)c1
U: %
kinase still bound, per cent of control: 100

* * *

# Tested on: RPS6KA1 KD2 (human) (UniProt Q15418)
# Sequence (Q15418 whole entry, looked up): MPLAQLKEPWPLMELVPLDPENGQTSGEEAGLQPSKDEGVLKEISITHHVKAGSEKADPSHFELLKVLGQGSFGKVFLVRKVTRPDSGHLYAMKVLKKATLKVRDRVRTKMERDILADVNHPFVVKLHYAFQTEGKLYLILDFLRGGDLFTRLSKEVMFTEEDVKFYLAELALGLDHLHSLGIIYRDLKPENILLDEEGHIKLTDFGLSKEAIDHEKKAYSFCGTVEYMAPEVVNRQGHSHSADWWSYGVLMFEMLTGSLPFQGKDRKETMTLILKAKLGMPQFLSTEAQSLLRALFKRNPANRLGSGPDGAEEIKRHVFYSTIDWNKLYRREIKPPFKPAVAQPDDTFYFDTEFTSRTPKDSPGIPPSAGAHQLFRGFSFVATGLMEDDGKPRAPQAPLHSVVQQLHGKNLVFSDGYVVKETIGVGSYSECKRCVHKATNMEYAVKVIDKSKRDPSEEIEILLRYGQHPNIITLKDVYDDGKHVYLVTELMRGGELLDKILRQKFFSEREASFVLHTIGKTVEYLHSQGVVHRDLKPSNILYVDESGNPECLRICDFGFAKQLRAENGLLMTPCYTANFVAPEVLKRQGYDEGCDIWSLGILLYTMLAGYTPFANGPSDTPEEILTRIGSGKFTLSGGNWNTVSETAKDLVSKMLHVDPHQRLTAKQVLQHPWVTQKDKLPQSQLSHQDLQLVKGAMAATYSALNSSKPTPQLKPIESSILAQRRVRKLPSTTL
# Assay details: KINOMEscan competition binding
# Study conditions: compound 1.0 µM
The following compounds are listed with their measured kinase still bound, per cent of control values.

Smi: CN(C)C/C=C/C(=O)Nc1cccc(C(=O)Nc2ccc(Nc3nccc(-c4cccnc4)n3)cc2)c1
kinase still bound, per cent of control, %: 82
--
Smi: Cc1cc(NC(=O)c2cccc(NC(=O)/C=C/CN(C)C)c2)ccc1Nc1nccc(-c2cccnc2)n1
kinase still bound, per cent of control, %: 88
--
Smi: CN(C)C/C=C/C(=O)Nc1cccc(C(=O)Nc2ccc(Nc3nccc(-c4c(-c5ccccc5)nn5ccccc45)n3)cc2)c1
kinase still bound, per cent of control, %: 36
--
Smi: CN(C)C/C=C/C(=O)Nc1cccc(C(=O)Nc2ccc(Nc3nccc(/C(C#N)=C4\Nc5ccccc5S4)n3)cc2)c1
kinase still bound, per cent of control, %: 100

* * *

# Tested on: PDGFRA (human)
# Assay details: KINOMEscan competition binding
# Study conditions: compound 1.0 µM

Smi: CN(C)C/C=C/C(=O)Nc1cccc(C(=O)Nc2ccc(Nc3nccc(/C(C#N)=C4\Nc5ccccc5S4)n3)cc2)c1
Tested on: PDGFRA (human)
kinase still bound, per cent of control, %: 100

Smi: Cc1cc(NC(=O)c2cccc(NC(=O)/C=C/CN(C)C)c2)ccc1Nc1nccc(-c2cccnc2)n1
Tested on: PDGFRA (human)
kinase still bound, per cent of control, %: 71

Smi: CN(C)C/C=C/C(=O)Nc1cccc(C(=O)Nc2ccc(Nc3nccc(-c4cccnc4)n3)cc2)c1
Tested on: PDGFRA (human)
kinase still bound, per cent of control, %: 67

Smi: CN(C)C/C=C/C(=O)Nc1cccc(C(=O)Nc2ccc(Nc3nccc(-c4c(-c5ccccc5)nn5ccccc45)n3)cc2)c1
Tested on: PDGFRA (human)
kinase still bound, per cent of control, %: 4.4
